target: α-glucosidase enzyme (from Saccharomyces cerevisiae, EC3.2.1.20) (Saccharomyces cerevisiae); construct: purchased Sigma Chemical Co. (St. Louis, USA); assay: biochemical; format: biochemical; conditions: ratio of IC50 versus acarbose
Sequence (P53341 whole entry): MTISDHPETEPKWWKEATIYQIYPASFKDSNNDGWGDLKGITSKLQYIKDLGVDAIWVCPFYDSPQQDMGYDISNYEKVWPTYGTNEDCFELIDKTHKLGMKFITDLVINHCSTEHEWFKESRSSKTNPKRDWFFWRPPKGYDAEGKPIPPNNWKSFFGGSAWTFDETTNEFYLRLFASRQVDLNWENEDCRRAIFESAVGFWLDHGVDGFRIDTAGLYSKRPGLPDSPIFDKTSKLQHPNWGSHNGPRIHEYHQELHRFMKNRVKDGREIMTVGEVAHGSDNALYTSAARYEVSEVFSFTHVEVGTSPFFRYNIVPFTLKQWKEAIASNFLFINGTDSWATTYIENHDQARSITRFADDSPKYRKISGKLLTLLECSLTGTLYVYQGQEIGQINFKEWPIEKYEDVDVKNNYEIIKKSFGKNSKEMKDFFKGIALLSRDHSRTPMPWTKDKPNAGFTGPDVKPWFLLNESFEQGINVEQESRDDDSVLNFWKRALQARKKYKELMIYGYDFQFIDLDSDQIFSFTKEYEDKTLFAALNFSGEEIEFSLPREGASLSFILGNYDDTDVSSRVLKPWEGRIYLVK
ENDPOINT NAME: fold more potent than the standard acarbose

COMPOUND: COc1ccc(-c2nn(-c3ccc(C)cc3)cc2C=NNC(=O)c2cc3ccccc3o2)cc1 [8l]
DATA VALUE: > 13 fold

###

MOLECULE: COc1ccc(-c2nn(-c3ccccc3)cc2C=NNC(=O)c2cc3ccccc3o2)cc1 [8c]
melting point: 207 to 209 °C

MOLECULE: O=C(NN=Cc1cn(-c2ccccc2)nc1-c1ccc(F)cc1)c1cc2ccccc2o1 [8h]
melting point: 253 to 254 °C

MOLECULE: Cc1ccc(-c2nn(-c3ccc(C)cc3)cc2C=NNC(=O)c2cc3ccccc3o2)cc1 [8k]
melting point: 259 to 261 °C

MOLECULE: O=C(NN=Cc1cn(-c2ccccc2)nc1-c1ccccc1)c1cc2ccccc2o1 [8a]
melting point: 210 to 211 °C

MOLECULE: O=C(N/N=C/c1cn(-c2ccccc2)nc1-c1ccc(O)cc1)c1cc2ccccc2o1 [8d]
melting point: 280 to 281 °C

MOLECULE: Cc1ccc(-n2cc(C=NNC(=O)c3cc4ccccc4o3)c(-c3ccc(Br)cc3)n2)cc1 [8n]
melting point: 258 to 259 °C

MOLECULE: Cc1ccc(-n2cc(C=NNC(=O)c3cc4ccccc4o3)c(-c3ccc(Cl)cc3)n2)cc1 [8o]
melting point: 248 to 249 °C

MOLECULE: Cc1ccc(-n2cc(C=NNC(=O)c3cc4ccccc4o3)c(-c3ccc(O)cc3)n2)cc1 [8m]
melting point: 293 to 295 °C

MOLECULE: COc1ccc(-c2nn(-c3ccc(C)cc3)cc2C=NNC(=O)c2cc3ccccc3o2)cc1 [8l]
melting point: 230 to 232 °C

Reference for the values: paper PMC8531348
